- testedSystem: T1, CD3 on Jurkat cells and on human T cells (human, UniProt P07766 23-207)
- T1 construct: whole, on cells; also called CD3 end; CD3 antigen
- T1 sequence (P07766 23-207): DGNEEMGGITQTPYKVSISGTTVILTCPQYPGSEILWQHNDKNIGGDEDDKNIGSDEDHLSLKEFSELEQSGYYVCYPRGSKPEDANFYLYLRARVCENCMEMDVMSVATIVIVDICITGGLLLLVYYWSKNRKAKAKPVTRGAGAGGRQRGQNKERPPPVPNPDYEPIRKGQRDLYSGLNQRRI
- protocolDescription: flow cytometry on Jurkat cells
observable: EC50 (nM)
Give bare numbers, in nM.

binder="CD3 Ab10 (antibody, human IgG1, kappa, V domains shown, also called humanized anti-CD3 monoclonal antibody) VH: EVQLVESGGGLVQPGGSLRLSCAASGFTFNTYAMNWVRQAPGKGLEWVARIRSKYNNYATYYADSVKDRFTISRDDSKNILYLQMNSLKTEDTAVYYCVRHGNFGNSYVSWFAYWGQGTLVTVSA VL: QAVVTQEPSLTVSPGGTVTLTCRSSTGAVTTSNYANWVQEKPGQAPRGLIGGTNKRAPWVPARFSGSLLGDKAALTLSGAQTEDEAEYYCALWYSNLWVFGGGTKLTVLR" observable=EC50 valueunit=nM measvalue=0.784
binder="CD3 Ab09 (antibody, human IgG1, kappa, V domains shown, also called humanized anti-CD3 monoclonal antibody) VH: EVQLVESGGGLVQPGGSLRLSCAASGFTFNTYAMNWVRQAPGKGLEWVARIRSKYNNYATYYADSVKDRFTISRDDSKNILYLQMNSLKTEDTAVYYCVRHGNFGNSYVSWFAYWGQGTLVTVSA VL: QAVVTQEPSLTVSPGGTVTLTCRSSTGAVTTSNYANWVQQKPGQAPRGLIGGTNKRAPWVPARFSGSLLGDKAALTLSGAQTEDEAEYYCALWYSNLWVFGGGTKLTVLR" observable=EC50 valueunit=nM measvalue=0.862
binder="CD3 Ab12 (antibody, human IgG1, kappa, V domains shown, also called humanized anti-CD3 monoclonal antibody) VH: EVQLVESGGGLVQPGGSLRLSCAASGFTFNTYAMNWVRQAPGKGLEWVARIRSKYNNYATYYADSVKDRFTISRDDSKNILYLQMNSLKTEDTAMYYCVRHGNFGNSYVSWFAYWGQGTLVTVSA VL: QAVVTQEPSLTVSPGGTVTLTCRSSTGAVTTSNYANWVQQKPGQAPRGLIGGTNKRAPWTPARFSGSLLGGKAALTLSGAQTEDEAEYYCALWYSNLWVFGGGTKLTVLR" observable=EC50 valueunit=nM measvalue=3.52
binder="CD3 Ab11 (antibody, human IgG1, kappa, V domains shown, also called humanized anti-CD3 monoclonal antibody) VH: EVQLVESGGGLVQPGGSLRLSCAASGFTFNTYAMNWVRQAPGKGLEWVARIRSKYNNYATYYADSVKDRFTISRDDSKNILYLQMNSLKTEDTAMYYCVRHGNFGNSYVSWFAYWGQGTLVTVSA VL: QAVVTQEPSLTVSPGGTVTLTCRSSTGAVTTSNYANWVQQKPGQAPRGLIGGTNKRAPWTPARFSGSLLGGKAALTLSGAQPEDEAEYYCALWYSNLWVFGGGTKLTVLR" observable=EC50 valueunit=nM measvalue=4.45

Proceed to the following item.
The recorded EC50 for CD3 Ab07 (antibody, human IgG1, kappa, V domains shown, also called humanized anti-CD3 monoclonal antibody) VH: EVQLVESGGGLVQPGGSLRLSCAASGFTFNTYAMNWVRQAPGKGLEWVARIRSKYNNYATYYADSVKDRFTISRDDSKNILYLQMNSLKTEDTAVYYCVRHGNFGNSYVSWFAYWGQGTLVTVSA VL: QAVVTQEPSLTVSPGGTVTLTCRSSTGAVTTSNYANWVQQKPGQAPRGLIGGTNKRAPWTPARFSGSLLGGKAALTLSGAQTEDEAEYYCALWYSNLWVFGGGTKLTVLR is 2.42
